Collected OD450 nm values appear next to each entry.
Target: T1, human GPC3-His protein (human, UniProt P51654 25-559)
T1 construct: Bought protein; also called human GPC3 protein; not shown: His tag
Assay: ELISA, coated human GPC3, antibody 0.1 nM;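 also: antigen coated on 96-well plates at 1 µg/mL, antibody bound 2 h at 37 °C, detected with HRP-labeled secondary antibody and TMB substrate, acid-stopped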
propertyLabel: OD450 nm

| binder | testResult |
| --- | --- |
| F1.62.9 human-murine chimeric antibody (antibody, human IgG1, kappa, V domains shown) VH: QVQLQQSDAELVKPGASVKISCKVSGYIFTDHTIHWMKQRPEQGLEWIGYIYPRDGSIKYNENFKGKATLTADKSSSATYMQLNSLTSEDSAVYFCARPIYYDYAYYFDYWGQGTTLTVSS VL: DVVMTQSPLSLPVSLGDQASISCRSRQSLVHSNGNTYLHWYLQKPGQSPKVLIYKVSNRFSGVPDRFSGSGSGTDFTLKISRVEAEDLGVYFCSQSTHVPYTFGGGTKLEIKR | 0.2 OD450 |
| F4.18.4 human-murine chimeric antibody (antibody, human IgG1, kappa, V domains shown) VH: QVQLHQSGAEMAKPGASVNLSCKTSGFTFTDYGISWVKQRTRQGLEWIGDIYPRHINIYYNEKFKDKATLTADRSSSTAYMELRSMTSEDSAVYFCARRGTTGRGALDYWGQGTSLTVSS VL: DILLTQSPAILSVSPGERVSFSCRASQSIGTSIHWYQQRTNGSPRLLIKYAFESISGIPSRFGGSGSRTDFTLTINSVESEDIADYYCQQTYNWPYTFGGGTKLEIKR | 0.83 OD450 |
| F1.73.9 human-murine chimeric antibody (antibody, human IgG1, kappa, V domains shown) VH: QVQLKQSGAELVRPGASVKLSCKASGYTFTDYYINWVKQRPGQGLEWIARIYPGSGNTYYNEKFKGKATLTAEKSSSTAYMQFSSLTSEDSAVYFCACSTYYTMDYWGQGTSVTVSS VL: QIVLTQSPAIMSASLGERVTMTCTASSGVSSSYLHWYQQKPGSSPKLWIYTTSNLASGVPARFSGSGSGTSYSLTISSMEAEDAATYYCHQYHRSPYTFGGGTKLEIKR | 0.86 OD450 |

Data origin: patent US20260116991A1
